I'd be grateful if you could share measured In Vitro Score for these entries.
# system_tested: T1, HLA-A*02:01 (human)
# T1 construct: recombinant MHC class I molecule incubated with the synthetic peptide (REVEAL, ProImmune)
# assay_procedure: REVEAL MHC-peptide binding assay, recombinant HLA

Incoming: May I ask what In Vitro Score has been recorded for FIIFWVSRG (synthetic 9-mer variant; the entry already carries the change) ?
Outgoing: 0.2 % of positive control peptide

Incoming: Now the binder WVLRGRKKL (synthetic 9-mer variant; the entry already carries the change)
Outgoing: 2.4 % of positive control peptide

Incoming: Please give the result for IIFWVQRGN (synthetic 9-mer variant; the entry already carries the changes) too.
Outgoing: 13 % of positive control peptide

Incoming: Same thing, different binder: WVQRGSKKL (synthetic 9-mer variant; the entry already carries the changes)
Outgoing: 4.4 % of positive control peptide
